Here, each record is paired with measured SPOT intensity data.
Molecular target: T1, Lsb4, P32793
T1 sequence (P32793 402-468, looked up): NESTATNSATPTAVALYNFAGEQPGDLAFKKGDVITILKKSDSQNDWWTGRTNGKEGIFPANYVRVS
Assay: SPOT array
Settings: median of control spots 397
Enter a number only.

            binder  value_measured
0  ALFRLSFFFPLDPAY              21
1  KRKRRLPVSEDTNTK               4
2  NFFRKKLGIPRKLKR               1
3  ATKSASPTLPTRRSR            1180
4  LSKRLPLRFPEHTSS               4
5  VFQFQMPTTPISTKM              39
6  PAPPPPPRASRPTPN               0
7  KNPRRQLQIPRQQPS               8
8  QPQRTAPKPPISAPR               1
9  WTQRRGPLVVYAEDN               1

Return reported SPOT intensity. Input binder: "RKRRTHLRLPLIRSN"
0

Return reported SPOT intensity. Input binder: "DRIRMFIRFPKFLLE"
7

Return reported SPOT intensity. Input binder: "LRWRHKFFLPAIAAI"
0

Return reported SPOT intensity. Input binder: "SSSSSPPPLPTRRDH"
748

Return reported SPOT intensity. Input binder: "ERPKRRAPPPVPKKP"
89
